Target: hCA II (Homo sapiens, UniProt P00918)
Construct: gene CA2; native enzyme purified from human blood; cytosolic isoform
Assay: esterase inhibition assay
Assay type: biochemical
Conditions: substrate 4-nitrophenyl acetate
Observation type: Ki (nM)
Express the result in nM but write the number alone.

// Ki value for CCOc1ccc(NN=Nc2cccc(S(N)(=O)=O)c2)cc1 [compound 4] : 16

These data points were gathered from paper PMC6913647.
